# Target System: Intercellular adhesion molecule (ICAM-1), Integrin alpha-L/beta-2 (Homo sapiens, UniProt P05107+P20701)
# Sequence (P20701 whole entry): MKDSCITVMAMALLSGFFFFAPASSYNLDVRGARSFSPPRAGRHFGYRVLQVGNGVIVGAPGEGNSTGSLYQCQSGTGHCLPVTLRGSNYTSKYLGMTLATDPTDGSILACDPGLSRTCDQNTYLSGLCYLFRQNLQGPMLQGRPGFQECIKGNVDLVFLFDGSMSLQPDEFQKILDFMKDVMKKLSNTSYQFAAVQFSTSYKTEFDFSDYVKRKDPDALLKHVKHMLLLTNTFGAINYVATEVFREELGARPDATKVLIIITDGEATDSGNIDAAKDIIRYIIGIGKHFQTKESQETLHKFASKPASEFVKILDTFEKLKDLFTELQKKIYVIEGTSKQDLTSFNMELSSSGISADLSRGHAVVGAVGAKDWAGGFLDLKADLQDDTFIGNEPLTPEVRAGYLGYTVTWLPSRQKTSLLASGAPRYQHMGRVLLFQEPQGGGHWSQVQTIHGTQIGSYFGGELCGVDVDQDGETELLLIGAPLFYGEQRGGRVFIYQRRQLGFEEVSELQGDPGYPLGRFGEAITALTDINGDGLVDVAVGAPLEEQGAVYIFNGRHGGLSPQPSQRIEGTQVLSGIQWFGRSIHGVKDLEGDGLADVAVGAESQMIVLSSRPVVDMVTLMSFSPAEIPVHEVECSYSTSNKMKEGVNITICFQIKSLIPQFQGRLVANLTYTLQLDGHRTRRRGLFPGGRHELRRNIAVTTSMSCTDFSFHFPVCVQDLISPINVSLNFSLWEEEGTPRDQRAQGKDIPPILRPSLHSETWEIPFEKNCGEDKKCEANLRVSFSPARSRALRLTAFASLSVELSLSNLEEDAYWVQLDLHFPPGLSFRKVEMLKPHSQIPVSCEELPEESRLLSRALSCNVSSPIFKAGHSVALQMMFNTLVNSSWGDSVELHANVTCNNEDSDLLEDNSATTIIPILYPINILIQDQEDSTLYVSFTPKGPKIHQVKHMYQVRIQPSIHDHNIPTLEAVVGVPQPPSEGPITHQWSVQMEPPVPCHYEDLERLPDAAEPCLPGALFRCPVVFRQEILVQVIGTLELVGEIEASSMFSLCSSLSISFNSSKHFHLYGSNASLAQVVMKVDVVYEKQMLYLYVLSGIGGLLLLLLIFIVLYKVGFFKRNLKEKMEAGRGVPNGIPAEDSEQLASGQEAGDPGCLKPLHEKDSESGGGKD
# Sequence (P05362 whole entry, further chain): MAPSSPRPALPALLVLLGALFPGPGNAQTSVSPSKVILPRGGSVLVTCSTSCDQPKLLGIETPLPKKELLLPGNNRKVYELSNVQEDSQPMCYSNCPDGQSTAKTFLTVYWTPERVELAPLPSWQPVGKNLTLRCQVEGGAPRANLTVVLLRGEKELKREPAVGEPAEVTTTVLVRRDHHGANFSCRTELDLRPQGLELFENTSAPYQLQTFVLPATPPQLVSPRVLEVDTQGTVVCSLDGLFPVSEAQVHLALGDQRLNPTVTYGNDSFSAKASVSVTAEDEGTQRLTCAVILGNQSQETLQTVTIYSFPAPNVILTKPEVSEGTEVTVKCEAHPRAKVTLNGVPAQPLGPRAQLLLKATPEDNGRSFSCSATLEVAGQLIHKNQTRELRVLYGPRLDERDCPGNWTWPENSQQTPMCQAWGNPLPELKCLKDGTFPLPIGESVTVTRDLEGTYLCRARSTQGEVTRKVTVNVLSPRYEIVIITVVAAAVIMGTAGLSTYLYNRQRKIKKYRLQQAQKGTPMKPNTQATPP
# Sequence (P05107 whole entry): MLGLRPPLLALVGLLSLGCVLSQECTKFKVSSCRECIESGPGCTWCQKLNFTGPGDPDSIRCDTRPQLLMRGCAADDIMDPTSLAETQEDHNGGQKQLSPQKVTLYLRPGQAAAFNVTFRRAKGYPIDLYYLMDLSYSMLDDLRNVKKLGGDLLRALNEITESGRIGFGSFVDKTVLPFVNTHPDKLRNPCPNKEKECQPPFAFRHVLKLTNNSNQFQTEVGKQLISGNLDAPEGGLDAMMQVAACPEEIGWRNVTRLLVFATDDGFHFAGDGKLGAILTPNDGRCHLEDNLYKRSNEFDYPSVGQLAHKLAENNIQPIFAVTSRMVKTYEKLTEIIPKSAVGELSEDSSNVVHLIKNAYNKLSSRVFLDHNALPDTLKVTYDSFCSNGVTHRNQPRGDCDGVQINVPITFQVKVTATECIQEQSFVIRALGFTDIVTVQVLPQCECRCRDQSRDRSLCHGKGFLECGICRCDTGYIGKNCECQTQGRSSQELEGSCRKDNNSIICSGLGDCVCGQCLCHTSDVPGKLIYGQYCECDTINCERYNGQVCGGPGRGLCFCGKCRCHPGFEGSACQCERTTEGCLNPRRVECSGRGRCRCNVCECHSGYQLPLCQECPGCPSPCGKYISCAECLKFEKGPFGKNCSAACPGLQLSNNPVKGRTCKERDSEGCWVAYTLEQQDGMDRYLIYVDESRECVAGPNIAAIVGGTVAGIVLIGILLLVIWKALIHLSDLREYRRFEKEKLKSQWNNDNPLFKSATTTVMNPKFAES
# Method Summary: Inhibition of JY-8 cell adhesion via leukocyte function associated antigen 1 (LFA-1) to ICAM-1, range (100-110)
# Type: cell-based
Property Name: IC50
Reply with a number, then the unit it belongs to.

(Q) Return IC50 (reported value) for this compound: CCn1cc(CN(C)C)c2cccc(Sc3ccc(/C=C/C(=O)N4CCN(C(C)=O)CC4)cc3Cl)c21
(A) 100 nM

###

# Target System: Intercellular adhesion molecule (ICAM-1), Integrin alpha-L/beta-2 (Homo sapiens, UniProt P05107+P20701)
# Method Summary: Inhibition of JY-8 cell adhesion via leukocyte function associated antigen 1 (LFA-1) to ICAM-1, range (110-140)
Property Name: IC50 (nM)
Report as a plain number; the unit nM is understood.

(Q) Return IC50 (reported value) for this compound: CC(=O)N1CCN(C(=O)/C=C/c2ccc(Sc3ccc4c(c3)OCO4)c(Cl)c2)CC1
(A) 120

###

# Method Summary: Half life when administered intravenously; range (0.3-1.79)
# Assay type: ADME, organism-based
# Condition Notes: in vivo, iv
Property Name: half-life (min)
Report as a plain number; the unit min is understood.

(Q) Return half-life (reported value) for this molecule: CC(=O)N1CCN(C(=O)/C=C/c2ccc(Sc3ccc4c(c3)OCCO4)c(Cl)c2)CC1
(A) 33

###

# Method Summary: Pharmacokinetic parameter was evaluated after oral administration of 5 mg/kg; range (4-8)
# Format: ADME, organism-based
# Design: dose 5 mg/kg, route oral
# Condition Notes: in vivo
Property Name: Tmax (h)
Report as a plain number; the unit h is understood.

(Q) Return Tmax (reported value) for this compound: CC(=O)N1CCN(C(=O)/C=C/c2ccc(Sc3ccc4[nH]ccc4c3)c(Cl)c2)CC1
(A) 6

###

# Method Summary: AUC(area under curve) was determined after intravenous administration in rats
# Format: ADME, organism-based
# Condition Notes: rat, plasma
Property Name: AUC (ng·h/mL)
Report as a plain number; the unit ng·h/mL is understood.

(Q) Return AUC (reported value) for this compound: CC(=O)N1CCN(C(=O)/C=C/c2ccc(Sc3ccccc3C(C)C)c([N+](=O)[O-])c2)CC1
(A) 1900

###

# Target System: Intercellular adhesion molecule (ICAM-1), Integrin alpha-L/beta-2 (Homo sapiens, UniProt P05107+P20701)
# Method Summary: Inhibition of JY-8 cell adhesion via leukocyte function associated antigen 1 (LFA-1) to ICAM-1
# Type: cell-based
Property Name: IC50 (nM)
Report as a plain number; the unit nM is understood.

Here's what some known entries look like.
| Smiles Repr | IC50 / nM |
| --- | --- |
| Nc1ccc(Sc2ccc3ccccc3c2Cl)c(Cl)c1 | 2300 |
| CC(=O)N1CCN(C(=O)/C=C/c2ccc(Sc3cccc4ccn(C)c34)c(Cl)c2)CC1 | 70 |
| CCOc1c(Sc2ccc(/C=C/C(=O)N3CCN(C(C)=O)CC3)cc2Cl)cc(Cl)c2cccnc12 | 580 |

# ---- query compound ----
(Q) Return IC50 (reported value) for this compound: CC(=O)N1CCN(C(=O)/C=C/c2ccc(Sc3ccc4cc[nH]c4c3)c(Cl)c2)CC1
(A) 150

###

# Method Summary: Half life when administered 5 mg/kg orally; range (4.1-5.5)
# Type: ADME, organism-based
# Set-up: dose 5 mg/kg
# Condition Notes: in vivo, po
Property Name: half-life
Reply with a number, then the unit it belongs to.

(Q) Return half-life (reported value) for this molecule: CC(=O)N1CCN(C(=O)/C=C/c2ccc(Sc3ccc4[nH]ccc4c3)c(Cl)c2)CC1
(A) 4.7 h
